Tested target: nicotinic receptors
Protocol summary: Determination of binding of compounds to relevant receptor sites (inhibition of L-[3H]nicotine binding, brain membrane preparations)
Measured property: Ki (nM)
// return numeric value only (unit: nM, not printed)

Task item: Would you kindly share the measured Ki for CNCCC#Cc1cccnc1 ?
Reply: 58

----------
Tested target: muscle-like nicotinic receptors (TE671/RD) (Homo sapiens, UniProt P02708+P07510+P11230+Q07001)
Construct: these cells express muscle-like nicotinic receptors; endogenous in cells; host or cells: TE671/RD (human embryonal rhabdomyosarcoma)
Sequence (P02708 21-457): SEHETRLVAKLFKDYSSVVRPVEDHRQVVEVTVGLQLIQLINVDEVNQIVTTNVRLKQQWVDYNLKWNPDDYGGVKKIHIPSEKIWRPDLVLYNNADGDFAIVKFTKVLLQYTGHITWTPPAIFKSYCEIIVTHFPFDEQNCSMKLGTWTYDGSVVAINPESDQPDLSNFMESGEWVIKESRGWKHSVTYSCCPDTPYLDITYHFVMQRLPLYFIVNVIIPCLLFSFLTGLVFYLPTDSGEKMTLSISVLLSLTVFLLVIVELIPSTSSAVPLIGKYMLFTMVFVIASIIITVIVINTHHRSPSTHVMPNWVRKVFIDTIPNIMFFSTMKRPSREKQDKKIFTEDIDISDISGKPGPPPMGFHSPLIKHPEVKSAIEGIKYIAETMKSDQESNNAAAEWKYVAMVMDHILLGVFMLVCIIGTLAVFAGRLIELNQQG
Sequence (Q07001 22-517): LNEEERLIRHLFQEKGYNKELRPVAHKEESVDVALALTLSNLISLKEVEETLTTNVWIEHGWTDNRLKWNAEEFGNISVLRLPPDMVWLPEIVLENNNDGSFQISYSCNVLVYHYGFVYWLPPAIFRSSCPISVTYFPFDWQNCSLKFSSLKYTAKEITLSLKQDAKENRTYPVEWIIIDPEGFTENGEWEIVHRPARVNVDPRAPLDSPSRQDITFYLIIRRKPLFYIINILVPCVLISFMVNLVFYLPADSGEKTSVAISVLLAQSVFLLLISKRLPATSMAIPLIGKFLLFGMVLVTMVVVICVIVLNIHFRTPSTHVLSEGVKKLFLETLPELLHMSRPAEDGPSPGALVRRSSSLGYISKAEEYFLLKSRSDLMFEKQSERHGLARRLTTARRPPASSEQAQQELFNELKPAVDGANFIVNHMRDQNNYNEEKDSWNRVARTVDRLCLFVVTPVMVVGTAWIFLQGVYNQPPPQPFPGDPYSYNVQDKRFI
Sequence (P07510 23-517): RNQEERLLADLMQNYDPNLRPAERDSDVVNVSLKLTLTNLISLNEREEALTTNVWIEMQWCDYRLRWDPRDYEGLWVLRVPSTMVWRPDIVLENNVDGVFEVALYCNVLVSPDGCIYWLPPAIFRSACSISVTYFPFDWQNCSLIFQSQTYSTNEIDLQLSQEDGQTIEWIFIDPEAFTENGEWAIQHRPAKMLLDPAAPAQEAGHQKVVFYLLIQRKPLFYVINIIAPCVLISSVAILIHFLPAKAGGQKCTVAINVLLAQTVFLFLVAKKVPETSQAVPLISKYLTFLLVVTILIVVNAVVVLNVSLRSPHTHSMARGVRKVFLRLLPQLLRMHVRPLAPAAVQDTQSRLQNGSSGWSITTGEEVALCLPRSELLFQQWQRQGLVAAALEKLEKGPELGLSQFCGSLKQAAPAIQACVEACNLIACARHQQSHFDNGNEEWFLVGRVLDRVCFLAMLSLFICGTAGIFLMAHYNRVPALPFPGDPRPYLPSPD
Sequence (P11230 24-501): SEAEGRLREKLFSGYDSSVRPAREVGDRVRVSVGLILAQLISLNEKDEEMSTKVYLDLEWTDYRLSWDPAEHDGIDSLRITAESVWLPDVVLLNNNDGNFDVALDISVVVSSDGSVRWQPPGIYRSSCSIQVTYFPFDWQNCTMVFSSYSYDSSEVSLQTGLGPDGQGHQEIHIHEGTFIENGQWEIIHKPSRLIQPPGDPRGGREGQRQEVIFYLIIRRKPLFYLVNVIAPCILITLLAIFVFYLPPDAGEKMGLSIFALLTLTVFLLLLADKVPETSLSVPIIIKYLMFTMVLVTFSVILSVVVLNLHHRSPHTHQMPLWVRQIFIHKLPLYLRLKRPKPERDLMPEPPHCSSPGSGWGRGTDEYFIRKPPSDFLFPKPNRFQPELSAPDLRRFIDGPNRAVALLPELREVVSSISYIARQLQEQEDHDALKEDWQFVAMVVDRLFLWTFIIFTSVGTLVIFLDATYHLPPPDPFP
Protocol summary: cell-based
Recorded conditions: TE671/RD; read-out: Muscle Effect (% nicotine)
Measured property: Emax (%)
Numeric only. Scale: %

1) CNCCC#Cc1cccnc1 : 7
2) CNCC/C=C/c1ccc(C)nc1 : 2

Task item: Need Emax, item CNCCCCc1cccnc1
Reply: 0

Task item: Data request, read-out Emax, for CNCC/C=C/c1cncnc1
Reply: 4

Task item: What does the data say about its Emax? Entry: COc1cncc(/C=C/CCN)c1
Reply: 0
